Just for reference, ChEMBL document CHEMBL5036303 is where these values come from.

Here the recorded EC50 is given for each entry.
system-name: Chemerin-like receptor 1 (Homo sapiens, UniProt Q99788)
Sequence (Q99788 whole entry): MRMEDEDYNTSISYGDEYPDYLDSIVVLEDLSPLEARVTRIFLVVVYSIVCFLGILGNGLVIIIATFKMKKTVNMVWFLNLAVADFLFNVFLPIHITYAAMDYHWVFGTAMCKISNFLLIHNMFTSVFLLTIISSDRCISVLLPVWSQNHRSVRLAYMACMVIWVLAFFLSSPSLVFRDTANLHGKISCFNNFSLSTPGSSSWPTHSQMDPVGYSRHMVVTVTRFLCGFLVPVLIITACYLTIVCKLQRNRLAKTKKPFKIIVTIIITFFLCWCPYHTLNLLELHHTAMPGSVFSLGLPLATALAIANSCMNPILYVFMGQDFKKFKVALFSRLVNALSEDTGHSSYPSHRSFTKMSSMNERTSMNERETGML
measurement-description: Agonist activity at wild type CMKL1 (unknown origin) expressed in COS-7 cells assessed as increase in calcium flux measured for 40 sec by Fluo-2 AM dye based assay
Type: functional, cell-based
Where a SMILES comes first, the peptide text is derived from it.
quantity-name: EC50

compound	value-reported
C[C@H](NC(=O)[C@H](Cc1ccccc1)NC(=O)[C@H](CCC(N)=O)NC(=O)CNC(=O)[C@@H]1CCCN1C(=O)[C@H](Cc1ccccc1)NC(=O)[C@@H](N)Cc1ccc(O)cc1)C(=O)N[C@@H](Cc1ccccc1)C(=O)O (H-YFPGQFAF-OH)	20 nM
C[C@@H]1NC(=O)[C@H](Cc2ccccc2)NC(=O)[C@H](CCC(N)=O)NC(=O)[C@@H](NC(=O)[C@@H]2CCCN2C(=O)[C@H](Cc2ccccc2)NC(=O)[C@@H](N)Cc2ccc(O)cc2)CSSC[C@@H](C(=O)O)NC(=O)[C@H](Cc2ccccc2)NC1=O (HELM PEPTIDE1{Y.F.P.C.Q.F.A.F.C}$PEPTIDE1,PEPTIDE1,4:R3-9:R3$$$V2.0)	64 nM
CC(C)C[C@H](NC(=O)[C@H](CCC(N)=O)NC(=O)CNC(=O)[C@@H]1CCCN1C(=O)[C@H](Cc1ccccc1)NC(=O)[C@@H](N)Cc1ccc(O)cc1)C(=O)N[C@@H](C)C(=O)N[C@@H](Cc1ccccc1)C(=O)N[C@@H](CO)C(=O)O	195 nM
C[C@H](NC(=O)[C@H](Cc1ccccc1)NC(=O)[C@H](CCC(N)=O)NC(=O)CNC(=O)[C@@H]1CCCN1C(=O)[C@H](Cc1ccccc1)NC(=O)[C@@H](N)Cc1ccc(O)cc1)C(=O)NCc1ccccc1	32 nM
